species on record: Homo sapiens; test: Selectivity ratio of IC50 for glucocorticoid receptor (unknown origin) to IC50 for mineralocorticoid receptor (unknown origin)
Decide using Ratio IC50 alone. Strictly below 20: Criterion met. Equal to or above 20: Criterion not met.

Examples from the recorded data:
CC[C@@](c1ccc(C(F)(F)F)cc1)(C(C)O)n1ncc2c(NS(C)(=O)=O)cc(F)cc21 (single isomer, unassigned; diastereomer A) : Criterion not met
CC[C@](CO)(c1ccc(Cl)cc1)n1ncc2c(NS(C)(=O)=O)cccc21 : Criterion not met
CC[C@](CO)(c1ccc(Cl)cc1)n1ccc2c(NS(C)(=O)=O)cc(F)cc21 : Criterion met

Query: Dear colleague, could you confirm whether Ratio IC50 of CC[C@@](c1ccc(C(F)(F)F)cc1)(C(C)O)n1ncc2c(NS(C)(=O)=O)cc(F)cc21 (single isomer, unassigned; diastereomer B) falls below 20? Thanks.
Response: Criterion met

Query: Here's an entry: CC[C@@](c1ccc(C(F)(F)F)cc1)(C(C)O)n1ncc2c(NS(C)(=O)=O)cccc21 (stereo not given in full) . Is its Ratio IC50 below 20?
Response: Criterion not met

----------
assay: Metabolic stability in human liver microsomes assessed as parent compound remaining measured at 0.5 hrs; type: ADME, Microsome; details: read-out: Stability
READOUT LABEL: remaining at 0.5 h (%)
Hi! Could you send only the number? It should be in %, unit omitted.

Query: Which remaining at 0.5 h value is on record for CC[C@@](c1ccc(C(F)(F)F)cc1)(C(C)O)n1ncc2c(NS(C)(=O)=O)cccc21 (some centres not stated) ?
Response: 52

Query: Return reported remaining at 0.5 h; argument: CC[C@@](c1ccc(C(F)(F)F)cc1)(C(C)O)n1ncc2c(NS(C)(=O)=O)cc(F)cc21 (single isomer, unassigned; diastereomer B)
Response: 84

----------
assay: Half-life in Sprague-Dawley rat at 1 mg/kg, iv or 2 mg/kg, po; assay type: ADME, organism-based; settings: in vivo
READOUT LABEL: half-life (h)
Your answer is read as h, so omit the unit and give the number.

Query: # lookup: half-life of CC[C@@](c1ccc(C(F)(F)F)cc1)(C(C)O)n1ncc2c(NS(C)(=O)=O)cccc21 (stereo partly specified)
Response: 5.7

----------
target: Mineralocorticoid receptor (Homo sapiens, UniProt P08235); assay: Binding affinity to mineralocorticoid receptor (unknown origin)
Sequence (P08235 whole entry): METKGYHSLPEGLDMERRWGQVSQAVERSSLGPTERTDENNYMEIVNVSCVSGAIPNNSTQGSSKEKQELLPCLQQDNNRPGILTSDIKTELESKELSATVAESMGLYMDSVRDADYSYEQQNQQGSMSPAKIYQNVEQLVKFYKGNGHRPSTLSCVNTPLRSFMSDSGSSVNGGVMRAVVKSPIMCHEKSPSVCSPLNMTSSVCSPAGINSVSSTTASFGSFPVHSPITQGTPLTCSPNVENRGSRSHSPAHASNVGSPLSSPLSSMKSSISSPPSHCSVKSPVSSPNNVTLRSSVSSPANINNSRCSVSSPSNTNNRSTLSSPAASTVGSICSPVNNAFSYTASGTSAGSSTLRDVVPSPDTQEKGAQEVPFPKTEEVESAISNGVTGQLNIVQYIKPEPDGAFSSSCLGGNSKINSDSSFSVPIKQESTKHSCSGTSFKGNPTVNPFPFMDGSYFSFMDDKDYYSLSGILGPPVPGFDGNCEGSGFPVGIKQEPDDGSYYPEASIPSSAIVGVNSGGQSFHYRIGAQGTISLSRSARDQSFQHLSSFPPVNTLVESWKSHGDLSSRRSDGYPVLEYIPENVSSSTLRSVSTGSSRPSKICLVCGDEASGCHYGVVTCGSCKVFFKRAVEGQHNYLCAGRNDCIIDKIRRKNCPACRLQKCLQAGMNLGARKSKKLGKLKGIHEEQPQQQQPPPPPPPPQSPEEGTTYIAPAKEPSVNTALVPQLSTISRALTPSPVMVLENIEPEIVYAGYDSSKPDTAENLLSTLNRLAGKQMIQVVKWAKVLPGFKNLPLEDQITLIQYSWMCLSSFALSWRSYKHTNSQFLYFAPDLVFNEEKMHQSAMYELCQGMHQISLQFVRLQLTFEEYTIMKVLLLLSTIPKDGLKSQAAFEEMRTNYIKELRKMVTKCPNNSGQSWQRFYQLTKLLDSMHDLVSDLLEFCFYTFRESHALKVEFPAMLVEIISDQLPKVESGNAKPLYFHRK
READOUT LABEL: pIC50
# log scale: pIC50 equals minus log10 of the concentration in mol/L

Query: Item CC[C@](CO)(c1ccc(Cl)cc1)n1ccc2c(NS(C)(=O)=O)cc(F)cc21 has what recorded pIC50?
Response: 7.49

----------
test: Clearance in Sprague-Dawley rat at 2 mg/kg, iv or 10 mg/kg, po; format: ADME, organism-based; conditions: in vivo
READOUT LABEL: clearance (mL/min/kg)
Please reply with the bare figure in mL/min/kg and do not write the unit itself.

Query: # input compound: CC[C@](CO)(c1ccc(Cl)cc1)n1ncc2c(NS(C)(=O)=O)cccc21 ; wanted: its clearance
Response: 27

----------
This section presents compounds with their documented clearance values.
assay: Clearance in Wistar Han rat at 1 mg/kg, iv or 2 mg/kg, po; assay type: ADME, organism-based; settings: in vivo
Report as a plain number; the unit L/h/kg is understood.

CC[C@@](c1ccc(C(F)(F)F)cc1)(C(C)O)n1ncc2c(NS(C)(=O)=O)cccc21 (some centres not stated) : 0.84

Here is the next item to consider.
Query: Quick one: clearance of CC[C@](CO)(c1ccc(Cl)cc1)n1ccc2c(NS(C)(=O)=O)cccc21 ?
Response: 2.46

----------
assay: Clearance in Wistar Han rat at 2 mg/kg, iv or 10 mg/kg, po; type: ADME, organism-based; conditions: in vivo
READOUT LABEL: clearance (mL/min/kg)
Expressed in mL/min/kg, but write only the number.

Query: Sample CC[C@](CO)(c1ccc(Cl)cc1)n1ccc2c(NS(C)(=O)=O)cc(F)cc21 — what was its clearance?
Response: 34

----------
assay: Half-life in Sprague-Dawley rat at 2 mg/kg, iv or 10 mg/kg, po; type: ADME, organism-based; conditions: in vivo
READOUT LABEL: half-life (h)
Numeric answer only, unit h assumed.

Query: Tell me the measured half-life of CC[C@](CO)(c1ccc(Cl)cc1)n1ncc2c(NS(C)(=O)=O)cccc21 , please.
Response: 1.9

----------
Listing of recorded pIC50 by entry.
target: Mineralocorticoid receptor (Homo sapiens); test: Antagonist activity at mineralocorticoid receptor (unknown origin)
// pIC50 is dimensionless: -log10 of concentration (M)

CC[C@](CO)(c1ccc(Cl)cc1)n1ccc2c(NS(C)(=O)=O)cc(F)cc21 : 6.94
CCC(CO)(c1ccc(Cl)cc1)n1ccc2c(NS(C)(=O)=O)cc(Br)cc21 (racemic) : 6.25
CC[C@@](c1ccc(C(F)(F)F)cc1)(C(C)O)n1ncc2c(NS(C)(=O)=O)cc(F)cc21 (single isomer, unassigned; diastereomer B) : 7.39

Query: # lookup: pIC50 of CCC(CC)(c1ccc(Cl)cc1)c1nnc2c(NS(C)(=O)=O)cccn12
Response: 5.23

Query: Consider the compound CC[C@@](c1ccc(C(F)(F)F)cc1)(C(C)O)n1ncc2c(NS(C)(=O)=O)cc(F)cc21 (single isomer, unassigned; diastereomer A) and give its measured pIC50.
Response: 7.66

Query: Looking for the measured pIC50 of CC[C@@](c1ccc(C(F)(F)F)cc1)(C(C)O)n1ncc2c(NS(C)(=O)=O)cccc21 (stereo partly specified) , can you help?
Response: 7.70

Query: What value of pIC50 has been reported for the following compound? CCC(CC)(c1ccc(Cl)cc1)n1ncc2c(NS(C)(=O)=O)cccc21
Response: 6.94

Query: Returns the measured pIC50 for the input compound. Input: CCC(CC)(c1ccc(Cl)cc1)c1cnc2c(NS(C)(=O)=O)cccn12
Response: 5.11

Query: What pIC50 value was documented for this compound, CC[C@](CO)(c1ccc(Cl)cc1)n1ncc2c(NS(C)(=O)=O)cccc21 ?
Response: 7.19

Query: Form field: reported pIC50 of CCC(CO)(c1ccc(Cl)cc1)n1ccc2c(NS(C)(=O)=O)cc(C#N)cc21 (racemic)
Response: 4.66

Query: # get_value(readout='pIC50', item= CCC(CC)(c1ccc(Cl)cc1)n1ccc2c(NS(C)(=O)=O)cccc21 )
Response: 7.41

----------
assay: Oral bioavailability in Wistar Han rat at 10 mg/kg; format: ADME, organism-based; settings: in vivo
READOUT LABEL: bioavailability (%)
Only the number, expressed in %, is required.

Query: Dear colleague, I am looking for the recorded bioavailability of the following molecule: CC[C@](CO)(c1ccc(Cl)cc1)n1ccc2c(NS(C)(=O)=O)cc(F)cc21
Response: 30
